Below, each of the binders is paired with its reported koff value.
testedTarget: T1, c-erbB-2 ECD with a Ser-Gly-His6 C-terminal fusion (UniProt P04626 23-652)
T1 construct: extracellular domain; Expressed from CHO cells, IMAC purified; coupled to a CM5 chip, coated on plates, or biotinylated with NHS-LC-biotin; also called c-erbB-2 extracellular domain; biotinylated c-erbB-2 ECD
experimentSummary: SPR BIAcore
assayMetric: koff (s⁻¹)

{"columns": ["binder", "unitsSymbol", "measuredResult"],
 "data": [
  ["C6MH3-B5 (scFv, C6ML3-9 sFv, VH CDR3 library B mutant) scFv: QVQLLQSGAELKKPGESLKISCKGSGYSFTSYWIAWVRQMPGKGLEYMGLIYPGDSDTKYSPSFQGQVTISVDKSVSTAYLQWSSLKPSDSAVYFCARHDVGYCTDATCAKWPEYFQHWGQGTLVTVSSGGGGSGGGGSGGGGSQSVLTQPPSVSAAPGQKVTISCSGSSSNIGNNYVSWYQQLPGTAPKLLIYGHTNRPAGVPDRFSGSKSGTSASLAISGFRSEDEADYYCASWDYTLSGWVFGGGTKLTVLG", "s⁻¹", 0.00023],
  ["C6MH3-B27 (scFv, C6ML3-9 sFv, VH CDR3 library B mutant) scFv: QVQLLQSGAELKKPGESLKISCKGSGYSFTSYWIAWVRQMPGKGLEYMGLIYPGDSDTKYSPSFQGQVTISVDKSVSTAYLQWSSLKPSDSAVYFCARHDVGYCKNSRCAKWPEYFQHWGQGTLVTVSSGGGGSGGGGSGGGGSQSVLTQPPSVSAAPGQKVTISCSGSSSNIGNNYVSWYQQLPGTAPKLLIYGHTNRPAGVPDRFSGSKSGTSASLAISGFRSEDEADYYCASWDYTLSGWVFGGGTKLTVLG", "s⁻¹", 0.0004]
]}
